TEST_TARGET: RON kinase (Homo sapiens, UniProt Q04912)
Construct: GST tagged recombinant human RON, amino acids 983-1400; GST; host or cells: insect cells
Sequence (Q04912 983-1400): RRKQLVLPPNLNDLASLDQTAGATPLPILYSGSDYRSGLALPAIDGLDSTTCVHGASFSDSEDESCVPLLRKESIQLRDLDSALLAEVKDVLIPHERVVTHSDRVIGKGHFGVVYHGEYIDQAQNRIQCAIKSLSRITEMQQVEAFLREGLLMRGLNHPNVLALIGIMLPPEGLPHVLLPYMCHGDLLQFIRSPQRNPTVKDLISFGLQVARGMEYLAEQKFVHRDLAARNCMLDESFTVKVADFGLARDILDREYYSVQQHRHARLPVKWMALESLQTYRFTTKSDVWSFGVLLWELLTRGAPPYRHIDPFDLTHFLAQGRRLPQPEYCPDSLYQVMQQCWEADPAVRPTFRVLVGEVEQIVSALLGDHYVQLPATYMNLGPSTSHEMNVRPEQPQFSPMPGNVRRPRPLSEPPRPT
PROCEDURE_TEXT: RON Kinase Assay
Type: biochemical
REPORTED_CONDITIONS: ratio RON IC50 / MET IC50
Description: Activity of RON kinase was determined by a radioactive filtration binding assay where incorporation of ^33P from ^33P-γ-ATP to the substrate was measured. […] IC50 values were calculated from a series of % Activity values determined at a range of inhibitor concentrations using software routines as implemented in the GraphPad Prism software package. […]
Entries annotated with measured Fold Selectivity RON/MET
Answer as a number with no unit attached.

• CC(=O)Nc1cc(Oc2ccc(NC(=O)C3(C(=O)Nc4ccc(F)cc4)CC3)c(F)c2)ccn1 [Compound E] = 3.85
• O=C(Nc1cc(Oc2cc(F)c(NC(=O)C3(C(=O)Nc4ccc(F)cc4)CC3)cc2F)ccn1)N1CC(CO)C1 [Compound H] = 0.75

Then this compound:
-- ask Entry CN1CCN(C2CCN(C(=O)Nc3cc(Oc4cc(F)c(NC(=O)C5(C(=O)Nc6ccc(F)cc6)CC5)cc4F)ccn3)CC2)CC1 [Compound G] needs its Fold Selectivity RON/MET filled in; supply it.
-- reply 0.04

Entry source: patent US8637672B2
